Cited source for all entries: patent US20220227830A1

Molecular target: T1, full-length human GIPR with an N-terminal FLAG tag (human, UniProt P48546 22-466)
T1 sequence (looked up): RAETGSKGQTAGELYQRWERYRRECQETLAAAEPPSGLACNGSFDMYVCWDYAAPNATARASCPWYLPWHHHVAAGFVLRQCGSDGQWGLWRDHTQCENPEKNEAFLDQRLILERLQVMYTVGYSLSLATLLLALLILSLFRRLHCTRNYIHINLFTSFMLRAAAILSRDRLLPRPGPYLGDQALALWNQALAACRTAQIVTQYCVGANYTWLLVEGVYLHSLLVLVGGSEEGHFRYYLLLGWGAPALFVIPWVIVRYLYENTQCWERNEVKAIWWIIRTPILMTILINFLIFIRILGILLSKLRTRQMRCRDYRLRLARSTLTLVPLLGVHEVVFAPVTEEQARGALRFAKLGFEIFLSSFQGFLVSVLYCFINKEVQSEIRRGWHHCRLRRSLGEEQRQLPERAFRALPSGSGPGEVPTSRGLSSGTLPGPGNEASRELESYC
Assay: cell-based or functional assay
Starred links: 1 amine or outer side, 2 acyl side, 3 side chain; linkers in the order of their positions; H or OH if unused. Non-standard residues stand in square brackets, D forms with d. Groups on a side chain read outwards from the residue. No end group written: not given here. *: point of attachment. C15 diacid = O=C(O)CCCCCCCCCCCCCC(=O)*; γGlu = O=C(O)[C@H](CCC(=O)[*:2])N[*:1]; NMeY = CN[C@@H](Cc1ccc(O)cc1)C(=O)O; AEEA = NCCOCCOCC(=O)O; Aib = CC(C)(N)C(=O)O
EXPERIMENTAL_READOUT: Human GIPR cAMP, HEK293T EC50 (pM)
Provide only the numeric value, understood in pM.

>  <BINDER>
Me-Y[Aib]EGTFISDYSIALDR[Aib]AQ[Aib]K([AEEA-γGlu-γGlu-γGlu-C15 diacid])FVNWLLAQK-NH2 [Compound 24]

>  <Human GIPR cAMP, HEK293T EC50 / pM>
0.4

$$$$
>  <BINDER>
[NMeY][Aib]EGTFISDYSIALDR[Aib]K([G5gE-C15 diacid])Q[Aib]NFVNWLLAQSPSSGAPPPS-NH2 [Compound 71]

>  <Human GIPR cAMP, HEK293T EC50 / pM>
0.6

$$$$
>  <BINDER>
[NMeY][Aib]EGTFISDYSI[Aib]KDR[Aib]AQ[Aib]NFVNWLLAQRPSSGAPPPS-NH2 (not fully specified (residue 14)) [Compound 120]

>  <Human GIPR cAMP, HEK293T EC50 / pM>
0.4

$$$$
>  <BINDER>
[NMeY][Aib]EGTFISDYSI[Aib]LDR[Aib]AQ[Aib]DFVNWLLAQK(2OEGgE‑C15DA)PSSGAPPPS-NH2 [Compound 100]

>  <Human GIPR cAMP, HEK293T EC50 / pM>
0.7

$$$$
>  <BINDER>
Me-Y[Aib]EGTFISDYSIALDR[Aib]KQ[Aib]NFVNWLLAQSPSSGAPPPS-NH2 (not fully specified (residues 1, 18)) [Compound 144]

>  <Human GIPR cAMP, HEK293T EC50 / pM>
0.1

$$$$

Record request: Human GIPR cAMP, HEK293T EC50 value, item [NMeY][Aib]EGTFISDYSIAK([G5-γGlu-C15 diacid])DR[Aib]AQ[Aib]DFVNWLLAQRPSSGAPPPS-NH2 [Compound 80]
0.4

// Human GIPR cAMP, HEK293T EC50 lookup, key: [NMeY][Aib]EGTFISDYSIALDRK([AEEA-AEEA-γGlu-C15 diacid])HQ[Aib]NFVNWLLAQRPSSGAPPPS-OH (also: Me-Tyr methyl position not given here) [Compound 47]
0.3

Quick check: Human GIPR cAMP, HEK293T EC50 of Me-Y[Aib]EGTFISDYSIALDR[Aib]AQ[Aib]K([AEEA-AEEA-γGlu-γGlu-C15 diacid])FVNWLLAQSG-OH [Compound 149] ?
0.7

Data request, read-out Human GIPR cAMP, HEK293T EC50, for YXEGTFISDYSIALDRXHQXDFVNWLLAQRPSSGAPPPS (not fully specified; Me-Tyr1; Aib 2,20; Km17 = Lys(gEgE-C15DA); C-term NH2) [Compound 66]
0.4

I am curious: what Human GIPR cAMP, HEK293T EC50 value has been reported for YXEGTFISDYSIALDRXHQXDFVNWLLAQRPSSGAPPPS (not fully specified; Me-Tyr1; Aib 2,20; Km17 = Lys(gE-C15DA); C-term NH2) [Compound 67] ?
0.6
